Overview of reported RLU, fluorescence trace across a group of compounds:
target: human TAS2R4 (Homo sapiens)
Construct: expressed in transfected cells; host or cells: HEK293T-Gα16gust44
test protocol: Calcium imaging assay (FLIPR), HEK293T-Gα16gust44 cells transfected with human TAS2R4
Assay type: cell-based
stated conditions: Time (s) 130.781 (TCA, TLCA: 130.782)
Note: unit RLU is implicit; provide only the numeric part.

Exercise: State the recorded RLU, fluorescence trace for this entry: "C[C@H](CCC(=O)NCC(=O)O)[C@H]1CC[C@H]2[C@@H]3[C@H](O)C[C@@H]4C[C@H](O)CC[C@]4(C)[C@H]3C[C@H](O)[C@]12C"
Solution: 463.894

Exercise: State the recorded RLU, fluorescence trace for this entry: "C[C@H](CCC(=O)O)[C@H]1CC[C@H]2[C@@H]3[C@@H](O)C[C@@H]4C[C@H](O)CC[C@]4(C)[C@H]3CC[C@]12C"
Solution: 229.593

Exercise: State the recorded RLU, fluorescence trace for this entry: "C[C@H](CCC(=O)O)[C@H]1CC[C@H]2[C@@H]3CC[C@@H]4C[C@H](O)CC[C@]4(C)[C@H]3C[C@H](O)[C@]12C"
Solution: 356.29

Exercise: State the recorded RLU, fluorescence trace for this entry: "C[C@H](CCC(=O)O)[C@H]1CC[C@H]2[C@@H]3[C@H](O)C[C@@H]4C[C@H](O)CC[C@]4(C)[C@H]3C[C@H](O)[C@]12C"
Solution: 466.285

Exercise: State the recorded RLU, fluorescence trace for this entry: "C[C@H](CCC(=O)NCCS(=O)(=O)O)[C@H]1CC[C@H]2[C@@H]3[C@H](O)C[C@@H]4C[C@H](O)CC[C@]4(C)[C@H]3C[C@H](O)[C@]12C"
Solution: 571.073

Exercise: State the recorded RLU, fluorescence trace for this entry: "C[C@H](CCC(=O)NCCS(=O)(=O)O)[C@H]1CC[C@H]2[C@@H]3CC[C@@H]4C[C@H](O)CC[C@]4(C)[C@H]3CC[C@]12C"
Solution: 267.674

====

target: mouse Tas2r144 (Mus musculus, UniProt Q7TQB8)
Construct: expressed in transfected cells; host or cells: HEK293T-Gα16gust44
Sequence (Q7TQB8 whole entry): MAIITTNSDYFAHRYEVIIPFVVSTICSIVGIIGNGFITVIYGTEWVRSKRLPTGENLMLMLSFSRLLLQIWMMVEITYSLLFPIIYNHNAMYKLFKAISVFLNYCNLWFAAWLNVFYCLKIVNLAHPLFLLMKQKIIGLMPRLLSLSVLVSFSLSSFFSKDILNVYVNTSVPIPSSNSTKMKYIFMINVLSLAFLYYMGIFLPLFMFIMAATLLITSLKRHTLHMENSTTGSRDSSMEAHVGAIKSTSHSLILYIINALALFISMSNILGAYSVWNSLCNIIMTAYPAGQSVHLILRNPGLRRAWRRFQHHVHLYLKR
test protocol: Calcium imaging assay (FLIPR), HEK293T-Gα16gust44 cells transfected with mouse Tas2r144
Format: cell-based
stated conditions: Time 100.781 s
property: RLU
Please make sure the unit comes right after the number.

Exercise: State the recorded RLU for this entry: "C[C@H](CCC(=O)NCCS(=O)(=O)O)[C@H]1CC[C@H]2[C@@H]3[C@H](O)C[C@@H]4C[C@H](O)CC[C@]4(C)[C@H]3C[C@H](O)[C@]12C"
Solution: 524.649 RLU

Exercise: State the recorded RLU for this entry: "C[C@H](CCC(=O)NCC(=O)O)[C@H]1CC[C@H]2[C@@H]3[C@H](O)C[C@@H]4C[C@H](O)CC[C@]4(C)[C@H]3C[C@H](O)[C@]12C"
Solution: 380.46 RLU

Exercise: State the recorded RLU for this entry: "C[C@H](CCC(=O)NCCS(=O)(=O)O)[C@H]1CC[C@H]2[C@@H]3CC[C@@H]4C[C@H](O)CC[C@]4(C)[C@H]3CC[C@]12C"
Solution: 389.827 RLU

Exercise: State the recorded RLU for this entry: "C[C@H](CCC(=O)O)[C@H]1CC[C@H]2[C@@H]3[C@H](O)C[C@@H]4C[C@H](O)CC[C@]4(C)[C@H]3C[C@H](O)[C@]12C"
Solution: 533.293 RLU

====

target: human TAS2R4 (Homo sapiens, UniProt Q9NYW5)
Construct: expressed in transfected cells; host or cells: HEK293T-Gα16gust44
Sequence (Q9NYW5 1-299): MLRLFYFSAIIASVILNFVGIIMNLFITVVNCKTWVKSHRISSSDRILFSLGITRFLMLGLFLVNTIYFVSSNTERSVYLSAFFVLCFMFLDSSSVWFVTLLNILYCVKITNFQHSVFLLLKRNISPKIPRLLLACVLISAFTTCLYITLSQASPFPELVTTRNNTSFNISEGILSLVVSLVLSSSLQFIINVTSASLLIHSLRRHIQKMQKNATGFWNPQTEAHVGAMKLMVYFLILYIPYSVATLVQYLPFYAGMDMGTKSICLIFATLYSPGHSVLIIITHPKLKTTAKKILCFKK
test protocol: Calcium imaging assay (FLIPR), HEK293T-Gα16gust44 cells transfected with human TAS2R4
Assay type: cell-based
stated conditions: Time (s) 32.781 (TCA, TLCA: 32.782)
Overview of reported RLU, fluorescence trace across a group of molecules:
Note: unit RLU is implicit; provide only the numeric part.

Examples with their reported RLU, fluorescence trace follow.
[
  {
    "entry smiles": "C[C@H](CCC(=O)NCCS(=O)(=O)O)[C@H]1CC[C@H]2[C@@H]3CC[C@@H]4C[C@H](O)CC[C@]4(C)[C@H]3CC[C@]12C",
    "RLU, fluorescence trace / RLU": 81.1426
  },
  {
    "entry smiles": "C[C@H](CCC(=O)NCCS(=O)(=O)O)[C@H]1CC[C@H]2[C@@H]3[C@H](O)C[C@@H]4C[C@H](O)CC[C@]4(C)[C@H]3C[C@H](O)[C@]12C",
    "RLU, fluorescence trace / RLU": 242.016
  }
]

--- query ---
Exercise: State the recorded RLU, fluorescence trace for this entry: "C[C@H](CCC(=O)O)[C@H]1CC[C@H]2[C@@H]3[C@@H](O)C[C@@H]4C[C@H](O)CC[C@]4(C)[C@H]3CC[C@]12C"
Solution: 170.961

====

target: mouse Tas2r144 (Mus musculus, UniProt Q7TQB8)
Construct: expressed in transfected cells; host or cells: HEK293T-Gα16gust44
test protocol: Calcium imaging assay (FLIPR), HEK293T-Gα16gust44 cells transfected with mouse Tas2r144
Type: cell-based
stated conditions: Time 132.781 s
Overview of reported RLU across a group of compounds:

Examples with their reported RLU follow.
[
  {
    "compound": "C[C@H](CCC(=O)NCCS(=O)(=O)O)[C@H]1CC[C@H]2[C@@H]3CC[C@@H]4C[C@H](O)CC[C@]4(C)[C@H]3CC[C@]12C [Taurolithocholic Acid, taurolithocholic acid]",
    "RLU": "293.828 RLU"
  },
  {
    "compound": "C[C@H](CCC(=O)NCCS(=O)(=O)O)[C@H]1CC[C@H]2[C@@H]3[C@H](O)C[C@@H]4C[C@H](O)CC[C@]4(C)[C@H]3C[C@H](O)[C@]12C [Taurocholic Acid, taurocholic acid]",
    "RLU": "388.666 RLU"
  },
  {
    "compound": "C[C@H](CCC(=O)NCC(=O)O)[C@H]1CC[C@H]2[C@@H]3[C@H](O)C[C@@H]4C[C@H](O)CC[C@]4(C)[C@H]3C[C@H](O)[C@]12C [Glycocholic Acid, glycocholic acid]",
    "RLU": "241.449 RLU"
  }
]

Exercise: State the recorded RLU for this entry: C[C@H](CCC(=O)O)[C@H]1CC[C@H]2[C@@H]3[C@H](O)C[C@@H]4C[C@H](O)CC[C@]4(C)[C@H]3C[C@H](O)[C@]12C [Cholic Acid, cholic acid]
Solution: 314.537 RLU

====

target: mouse Tas2r123 (Mus musculus)
Construct: expressed in transfected cells; host or cells: HEK293T-Gα16gust44
Sequence (P59528 1-333): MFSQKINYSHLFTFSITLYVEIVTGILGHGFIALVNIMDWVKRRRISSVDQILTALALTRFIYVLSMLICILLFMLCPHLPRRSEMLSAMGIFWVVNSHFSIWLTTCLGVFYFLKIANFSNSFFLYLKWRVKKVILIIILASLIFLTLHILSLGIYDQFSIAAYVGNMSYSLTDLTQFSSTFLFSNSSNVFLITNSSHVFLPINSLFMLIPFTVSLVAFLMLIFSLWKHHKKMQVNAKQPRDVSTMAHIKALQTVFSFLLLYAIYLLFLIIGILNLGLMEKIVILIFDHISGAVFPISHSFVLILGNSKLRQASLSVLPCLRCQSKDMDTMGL
test protocol: Calcium imaging assay (FLIPR), HEK293T-Gα16gust44 cells transfected with mouse Tas2r123
Assay type: cell-based
stated conditions: p < 0.01 vs empty vector
Overview of reported Activation threshold concentration Tas2r123 across a group of molecules:
Note: unit µM is implicit; provide only the numeric part.

[
  {
    "entry smiles": "C[C@H](CCC(=O)NCCS(=O)(=O)O)[C@H]1CC[C@H]2[C@@H]3[C@H](O)C[C@@H]4C[C@H](O)CC[C@]4(C)[C@H]3C[C@H](O)[C@]12C",
    "measurement unit": "µM",
    "observed result": 100
  },
  {
    "entry smiles": "C[C@H](CCC(=O)O)[C@H]1CC[C@H]2[C@@H]3[C@@H](O)C[C@@H]4C[C@H](O)CC[C@]4(C)[C@H]3CC[C@]12C",
    "measurement unit": "µM",
    "observed result": 10
  },
  {
    "entry smiles": "C[C@H](CCC(=O)O)[C@H]1CC[C@H]2[C@@H]3CC[C@@H]4C[C@H](O)CC[C@]4(C)[C@H]3C[C@H](O)[C@]12C",
    "measurement unit": "µM",
    "observed result": 10
  },
  {
    "entry smiles": "C[C@H](CCC(=O)NCC(=O)O)[C@H]1CC[C@H]2[C@@H]3[C@H](O)C[C@@H]4C[C@H](O)CC[C@]4(C)[C@H]3C[C@H](O)[C@]12C",
    "measurement unit": "µM",
    "observed result": 30
  }
]

Exercise: State the recorded Activation threshold concentration Tas2r123 for this entry: "C[C@H](CCC(=O)O)[C@H]1CC[C@H]2[C@@H]3[C@H](O)C[C@@H]4C[C@H](O)CC[C@]4(C)[C@H]3C[C@H](O)[C@]12C"
Solution: 10
